These data points were gathered from a melting point compilation (Tetko et al.; mined from patent text by program, amines drawn as free bases though some values may be those of a salt).

observable: melting point

compound	testResult
Cc1ccc(N)c(C(=O)Nc2cccnc2Cl)c1	187 to 190 °C
COc1ccc2c(c1)[nH]c1c(C)c(OS(=O)(=O)c3cccc4c(N(C)C)cccc34)ccc12	174 °C
CSCCNC(=O)c1cccc(-c2cccc(Oc3cc(Cl)cc(Cl)c3)n2)c1	123 to 124 °C
CCNc1cncc(C(=NCCO[N+](=O)[O-])NC#N)c1	100 °C
CNC(=C[N+](=O)[O-])N(C)Cc1ccc(Cl)nc1	103 to 104 °C
Cc1cc2cc(O)ccc2[nH]1	124 to 126 °C
N#CC(c1ccccc1)c1cc(Oc2cc(Cl)cc(Cl)c2)c2c(=O)c3ccccc3sc2c1 (configuration not stated)	145 to 155 °C

###

Each item that follows carries a reported melting point.

molecule	melting point
CC(=O)Nc1ccc(S(=O)(=O)N2CCN(C)CC2)cc1	184 °C
CS(=O)(=O)CC(=O)N[C@H]1CC[C@H](CCN2CCC(c3cccc4c3CCO4)CC2)CC1	211 °C
CCOc1nn(Cc2ccc(OCc3nc(-c4ccccc4)oc3C)c(OC)c2)cc1CCC(=O)O	122 to 123 °C
O=C(O)CCCNC(=O)NCCCCC1CCSS1 (stereo not given)	94 to 99 °C
O=C1NC(=O)C(S(=O)(=O)c2ccc(F)cc2)S1 (stereo not given)	190 to 196 °C
COc1cccc(C2Cc3ccccc3C2=O)c1 (stereo not given)	144 to 146 °C
CCCn1nc(SCCCCC(=O)O)c(C(=O)O)c1Cc1cc2c(cc1Cl)OCO2	185 °C
CC(C)(C)OC(=O)N1CCC(OCc2ccccc2)C1CC(=O)Cn1cnc2cccc(F)c2c1=O (stereo not given)	221 °C
CCOC(=O)CC(CCCCNC(=O)c1sc(NC(=N)N)nc1C)c1ccccc1 (racemic)	138 °C
CCCOc1ccc2c(c1)C(c1ccc(OC)cc1-c1cccc(C(=O)O)c1)C(C(=O)O)C2c1ccc2c(c1)OCO2 (stereo not given)	257 to 268 °C
Nc1ncnc2[nH]cc(-c3ccccc3)c12	238 to 239 °C
Nc1cc(C(=O)O)cc(S(N)(=O)=O)c1Oc1ccc(OCc2ccccc2)cc1	264 to 265 °C
O=C1CCC(c2ccccc2)(c2ccccc2)[C@@H]2CN(C(=O)Cc3ccccc3N3CCOCC3)C[C@H]12 (racemic)	167 °C
CC(C)c1cccc(C(C)C)c1NC(=O)N(Cc1ccc(O)cc1)CC1(c2c[nH]cn2)CCCCC1	185 to 188 °C
CCN(C)C(N)=C(C#N)C(N)=S	121 to 124 °C
CS(=O)(=O)c1cc(Cl)c2[nH]cc(CC(N)C(=O)O)c2c1 (stereo not given)	292 to 294 °C
O=C1C=C(Nc2ccc(F)cc2)CCN1	195 to 198 °C
CCN1CCC(c2ccc(Br)cc2)CC1	33 to 34 °C
CC(=O)Nc1ccc(C(NC(c2ccccc2)c2ccccc2)P(O)O)cc1 (stereo not given)	196 to 200 °C
COc1cc(OC)nc(NCC2COC3(CCC(C(C)(C)C)CC3)O2)n1 (stereo not given)	76 to 106 °C
O=C(CCN1CCCCC1)Nc1cccc(NC(=O)Nc2ccc(N(CCCl)CCCl)cc2)c1	108 to 110 °C
O=C(Nc1ccc2c(c1)S(=O)(=O)NC1CCCN21)c1ccccc1 (stereo not given)	293 °C
COc1ccccc1[C@H](c1cccc2ccccc12)[C@@](C)(C#N)C(=O)N1CC=C(c2c[nH]c3ccccc23)CC1	229 to 231 °C
COc1ccc(CN2C(=O)C(C)(c3cc(N(C)C(=O)CN(C)C)ccc3Cl)c3cc(Cl)ccc32)c(OC)c1 (stereo not given)	104 °C
COc1ccc(C2=NC(C)(C)CO2)cc1N	108 to 110 °C

###

Each item that follows carries a reported melting point.
observable: melting point

compound	testResult
N#CC1=C(C2CCC2)Nc2n[nH]cc2C1c1ccccc1Cl (stereo unspecified)	188 °C
COc1cc(-c2cc(-c3ccc(-c4c(Cc5ccccc5)sc5ccccc45)cc3)ccc2OCC(=O)O)cc(OC)c1OC	93 to 94 °C
CN1CCN(C(=O)CN2C(=O)C(NC(=O)OCc3ccccc3)N=C(c3ccccc3)c3ccccc32)CC1 (stereo unspecified)	200 to 202 °C
CCCC1(CCC)CCC2(CC1)CC(=O)OC(=O)C2	91 to 93 °C
CC1CCN(c2nccc(Oc3ccc(NC(=O)c4cc(F)cc(N5CCOCC5)c4)c4ccccc34)n2)CC1	117 to 118 °C
O=C(C1CC2(CCN1)OCCO2)N1CCCC1 (stereo unspecified)	72.5 to 74.5 °C

###

Each item that follows carries a reported melting point.
observable: melting point

compound	testResult
O=P(O)(O)C(c1cccc(C(F)(F)F)c1)c1cccc(C(F)(F)F)c1	191 to 193 °C
C=CCc1c(C(=O)N(C)C)cn2cc(C)nc2c1OC(=O)C(C)(C)C	178 to 180 °C
CC(C)(C)OC(=O)NCc1[nH]c(=O)c2ccc(C#N)cc2c1-c1ccc(Cl)cc1	234 to 235 °C
OCc1cn(-c2ccc(-c3ccccc3)cc2)cn1	173 to 177 °C
CCOC(=O)CCCCCCC1C(=O)NC(=O)N1C1(O)CCCCC1 (stereo not given)	62 to 63 °C
CC(=O)Nc1ccc2c(c1)OC(C)(C)C=C2	80 to 81 °C
CCOC(=O)N1CCC(SC(c2ccccc2)c2ccccc2)CC1	70 to 71 °C
CCCCCC[Si]1(CCCCCC)C([Si](C)(C)C)=C(c2ccccc2)C(c2ccccc2)=C1[Si](C)(C)C	81 °C
O=c1[nH]cc(Cc2ccccc2)cc1Br	151 to 152 °C
O=c1c(-c2ccccc2)ccc2n1CCc1ccsc1-2	133 to 134 °C
CS(=O)(=O)c1ccc(-n2nc(C=O)cc2-c2ccccc2)cc1	133 to 136 °C
Cc1cc(C2=NN(c3nncs3)C(C)Cc3cc4c(cc32)OCO4)ccc1[N+](=O)[O-] (stereo not given)	182 to 189 °C
CC(=O)OCCNC(=O)NCc1ccc(-c2csc(N=C(N)N)n2)o1	200 to 202 °C
COc1ccc2c(c1)c(-c1[nH]c3ncccc3c1F)cn2C	248 to 250 °C
COc1cc(C(=O)O)ccc1Cc1cn(C)c2ccc(NC(=O)NC3CCCC3)cc12	203 to 206 °C
CC(C)COc1ccccc1-c1ncc(C#N)c(=O)[nH]1	186 to 187 °C
CC(CCN(C)C1CCC(c2ccc3[nH]c(=O)oc3c2)CC1)c1ccccc1 (stereo not given)	61 to 70 °C
Oc1ccc(N=C(C=COc2ccccc2)Oc2ccccc2)cc1	110 °C
CCCn1cc(Cc2ccc(C(=O)NS(=O)(=O)c3ccccc3C)cc2OC)c2cc(CC3CCN(C)C3=O)ccc21 (stereo not given)	103 to 115 °C
CCOC(=O)C(=O)Nc1nc(C)c(C)s1	86 to 88 °C
CCCNC(=O)c1cccc(-c2nc(=O)c3ccccc3s2)n1	180 to 181 °C
CC1(C)CCC(C)(C)c2cc(CCOc3ccc(C(=O)O)c(O)c3)ccc21	210 to 212 °C
Cc1cc(C(C)C(=O)O)n(C)c1C(=O)c1ccc(Cl)cc1 (stereo not given)	153 to 154 °C
CCOC(=O)c1c(N)nc(C)c(C(=O)CCCCCCCCCCBr)c1-c1cccc([N+](=O)[O-])c1	73 to 74 °C
Cc1cc(C)c2nc(Nc3ccc(CN)cc3)n(Cc3nc(C)ccc3O)c2c1	255 °C

###

Each item that follows carries a reported melting point.
observable: melting point

compound	testResult
COc1c(C)c2c(c(O)c1C/C=C(/Cl)CCC(=O)O)C(=O)OC2	135 to 137 °C
O=C(Cl)CC(c1ccccc1)(c1ccccc1)c1ccccc1	182 °C
CC[C@H]1COC(=O)N1c1nc(-c2ccc(Br)cc2)c(F)s1	105 to 107 °C
COC(=O)c1ccc(-c2cc(-c3ccc(Cl)cc3)no2)cc1	225 to 226 °C
CC1(C)C(=O)Nc2cc([N+](=O)[O-])c(NC(=O)c3ccncc3)cc21	310 to 318 °C
COCc1cn2c(C)c(C)nc2c2c1C(=O)[C@H](O)[C@@H](c1ccccc1)N2	206 to 208 °C
OCc1cc(I)ccc1F	42 °C
COC(=O)CN1C(=O)CC1SCc1ccc(OC)cc1 (stereo unspecified)	45 to 46 °C
COC(=O)C(=O)c1ccc(C(=O)NCCOc2ccc3ccccc3c2)cc1	114 to 115 °C
Nc1nc(C(F)(F)F)cc(C(F)(F)F)n1	94.5 to 96 °C
CCc1c(OC)nc2nc(-c3nnc(C(F)(F)F)o3)cn2c1C	210 to 211 °C
C=CCc1c(O)cc(C)c(O)c1C	114 to 116 °C
CC(O)=C1C(c2ccccc2)=C(c2ccc(S(C)(=O)=O)cc2)C1(Cl)Cl	194 to 195 °C
C[C@H](CSC(=O)c1ccccc1)C(=O)N(CC(=O)OC(C)(C)C)C1CCCC1	54 to 56 °C
CC(C)(C)CC(C)(C)c1ccc(Nc2ccc(Cc3ccc(Nc4ccc(C(C)(C)CC(C)(C)C)cc4)c4ccccc34)c3ccccc23)cc1	80 °C
CONS(=O)(=O)c1ccccc1Cl	92.5 to 94 °C
Cc1cccc(Nc2n[nH]c3ncnc(NCc4ccccc4)c23)c1	200 to 201 °C
CCOC(=O)C(=CN1c2ccc(F)c(F)c2OCC1COC)C(=O)OCC (stereo unspecified)	81 °C
O=c1[nH]c(-c2ccccn2)nnc1-c1ccc(Cl)cc1	216 to 217 °C
COc1cc(N)c2nccc(C)c2c1OCCCCCCCCCc1ccccc1	32 to 32.5 °C
COC(=O)c1ccc2c(c1)ncn2N	194 to 195 °C
CC(C)(C)OC(=O)c1ncn2c1C1CCCN1C(=O)c1cnccc1-2 (stereo unspecified)	217 to 218 °C
Cc1ccc2c(c1)c(N1CCNCC1)c(C#N)c(=O)n2C	274 °C
CCCC(C)(Cl)Cn1ncc(OCc2ccc(CC)cc2)c(Cl)c1=O (stereo unspecified)	81 to 83 °C
CCCC(=O)O[C@H]1[C@H](OCc2ccccc2)[C@@H](OCc2ccccc2)[C@H](OCc2ccccc2)[C@@H](OCc2ccccc2)[C@]1(O)CCC (racemic)	143 °C
CCC(=O)NCCC1CCc2cc(Br)c3c(c21)CCCO3 (stereo unspecified)	114 to 116 °C
COc1ccc(Cl)cc1N1C(=O)CON(C)C1=S	189 to 191 °C
CC1(C)Oc2ccc(C#N)cc2C(Oc2ccnc(O)c2)C1O (stereo unspecified)	249 to 250 °C
c1ccc(C(OC2CCN(CCOc3ccc4nncn4n3)CC2)c2ccccc2)cc1	149 to 150 °C
O=[N+]([O-])c1cnn(-c2c(Cl)cc(C(F)(F)F)cc2Cl)c1Br	96 °C
CC(=O)NC[C@H]1CN(c2ccc(N3CCC(N)(C#N)CC3)c(F)c2)C(=O)O1	94 to 96 °C
